target: UniProtKB Q01469
Sequence (Q01469 whole entry): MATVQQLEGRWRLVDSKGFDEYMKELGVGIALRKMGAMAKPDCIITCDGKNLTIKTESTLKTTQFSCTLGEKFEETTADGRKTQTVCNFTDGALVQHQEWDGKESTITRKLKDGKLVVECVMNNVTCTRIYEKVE
REPORTED_METRIC: Ki (nM)
Value expressed in nM; do not type the unit.

# MOLECULE, Ki (nM)
records = [
    ("CCCCCCCC/C=C\\CCCCCCCC(=O)O [oleic acid]", 1890),
]

IN: What Ki value was documented for this molecule, CCCCC/C=C\C/C=C\CCCCCCCC(=O)O [linoleic acid] ?
OUT: 1570

Reference for the values: paper PMC5458187
